testedTarget: hNMUR1 (Homo sapiens)
Sequence (Q9HB89 1-426): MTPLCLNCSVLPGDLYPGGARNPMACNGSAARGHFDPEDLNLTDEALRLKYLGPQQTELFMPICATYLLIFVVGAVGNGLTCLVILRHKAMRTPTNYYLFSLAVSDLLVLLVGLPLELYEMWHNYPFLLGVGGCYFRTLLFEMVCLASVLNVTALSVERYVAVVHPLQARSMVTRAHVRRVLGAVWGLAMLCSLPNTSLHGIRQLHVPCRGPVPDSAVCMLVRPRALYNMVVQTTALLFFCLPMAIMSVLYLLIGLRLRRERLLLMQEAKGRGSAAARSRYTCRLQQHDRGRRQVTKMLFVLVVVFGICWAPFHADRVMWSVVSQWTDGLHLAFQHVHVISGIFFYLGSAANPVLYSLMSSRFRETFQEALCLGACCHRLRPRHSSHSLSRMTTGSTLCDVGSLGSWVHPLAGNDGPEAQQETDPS
testMethodNotes: 125I-hNMU-25 binding assay, human NMUR1 membranes
Parameters: expressed in transfected cells; host or cells: HEK-293 FLP-In cells (pcDNA5); HEK-293/aeq17 lines (pIRES-puro) were also made
conditionDescription: binding, human R1
readoutLabel: pIC50
One number for each entry, as −log10 of the molar value.

The measured pIC50 associated with H-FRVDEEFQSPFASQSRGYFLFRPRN-NH2 [hNMU-25, reference compound] reads 9.85

----------
testedTarget: hNMUR1 (Homo sapiens, UniProt Q9HB89)
testMethodNotes: In vitro functional assay, HEK-hR1 cells
Format: cell-based
Parameters: expressed in transfected cells; host or cells: FLP-In CHO or HEK-293 FLP-In cells (pcDNA5); HEK-293/aeq17 lines (pIRES-puro) were also made
conditionDescription: Table 8, HEK-hR1, functional
Procedure: […] After a 90 minute incubation at room-temperature, cell plates were loaded onto a FLIPR (Molecular Devices) to monitor cellular fluorescence (excitation=488 nm; emission=540 nm) before and after compound/peptide addition. […] The response after peptide addition was taken as the maximum fluorescence units minus the fluorescence immediately prior to stimulation for each well. EC50 values were calculated using GraphPad Prism (San Diego, Calif.) software. […]
No end group written: not given here.
Answer each item with its documented % Activity.
One number for each entry, in %.

YFWRPRN-NH2 [Agonist A, YFWRPRN-CONH2]: 92
H-FRVDEEFQSPFASQSRGYFWRPRN-NH2 [Agonist G]: 91
H-YFGWRPRN-NH2 [Agonist C]: 87

Would you kindly look at the next entry?
The measured % Activity associated with Ac-FFRPRN-NH2 [Agonist F, Ac-FFRPRN-CONH2] reads 96

----------
Answer each item with its documented % Activity.
testedTarget: hNMUR1 (Homo sapiens, UniProt Q9HB89)
testMethodNotes: 125I-hNMU-25 binding assay, human NMUR1 membranes
Parameters: expressed in transfected cells; host or cells: HEK-293 FLP-In cells (pcDNA5); HEK-293/aeq17 lines (pIRES-puro) were also made; concentration or dose not given beside the values
conditionDescription: Table 9, HEK-hR1, binding
No end group written: not given here.
Answers are plain numbers, in %.

Give measured % Activity for every item shown.
1. H-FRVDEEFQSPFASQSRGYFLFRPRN-NH2 [hNMU-25, reference compound]
2. WALFRARN-NH2 [Agonist M]
3. FALFRPRN-NH2 [Agonist N]
4. H-FWLFRARN-NH2 [Agonist L]

A)
1: 100; 2: 0; 3: 38.4; 4: 0

Recorded values, source patent US20100075907A1.
